# key: entry, value: Percent Effect
- system: Tyrosyl-tRNA synthetase, putative (Trypanosoma cruzi (strain CL Brener)) (UniProt Q4DSP6)
- Sequence (Q4DSP6 as listed by the source): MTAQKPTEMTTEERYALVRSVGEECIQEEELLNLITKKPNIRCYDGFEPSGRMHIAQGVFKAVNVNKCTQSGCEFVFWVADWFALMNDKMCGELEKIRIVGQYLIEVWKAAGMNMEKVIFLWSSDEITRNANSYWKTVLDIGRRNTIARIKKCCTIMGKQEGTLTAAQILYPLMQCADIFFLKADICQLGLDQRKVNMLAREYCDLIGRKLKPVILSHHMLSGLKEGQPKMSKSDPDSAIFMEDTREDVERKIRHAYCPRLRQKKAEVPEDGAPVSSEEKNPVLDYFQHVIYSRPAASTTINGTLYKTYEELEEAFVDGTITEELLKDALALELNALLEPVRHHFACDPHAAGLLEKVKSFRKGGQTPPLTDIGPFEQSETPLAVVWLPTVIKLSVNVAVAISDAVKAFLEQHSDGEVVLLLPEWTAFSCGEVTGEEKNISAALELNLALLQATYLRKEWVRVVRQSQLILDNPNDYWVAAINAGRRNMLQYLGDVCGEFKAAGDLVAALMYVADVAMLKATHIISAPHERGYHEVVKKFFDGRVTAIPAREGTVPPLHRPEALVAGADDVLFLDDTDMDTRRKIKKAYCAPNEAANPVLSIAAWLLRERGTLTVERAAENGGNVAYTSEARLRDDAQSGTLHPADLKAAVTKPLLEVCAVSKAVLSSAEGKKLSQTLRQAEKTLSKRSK
- assayText: Trypanosoma cruzi tyrosyl tRNA synthetase (TcYRS) _High Tyrosine SOP; also: in the data most compounds retested in dose-response had high values
- Format: functional
- Design: scale not given: direction of the effect not stated beside the values
- settings: 30 µM
Note: unit % is implicit; provide only the numeric part.

Lab book: Percent Effect of CCN(CC1CCCO1)C(=O)Nc1ccc(F)cc1OC (configuration not stated) noted as 4.43

Lab book: Percent Effect of CN(CC1(O)CCCN(CCC2CCCCC2)C1=O)C1CCOCC1 (configuration not stated) noted as 4.92

Lab book: Percent Effect of CN1CCN(C(=O)CC2CCN(CCc3ccccn3)CC2)CC1 noted as 6.67

Lab book: Percent Effect of CN(c1ccc(F)c(F)c1)S(=O)(=O)c1cc(C(=O)O)cs1 noted as -0.493

Lab book: Percent Effect of COC(=O)c1ccoc1COC(=O)CCc1ccc(OC)c(OC)c1 noted as 0

====

# key: entry, value: Percent Effect
- system: Ubiquitin-activating enzyme e1, putative (Leishmania donovani (strain BPK282A1))
- assayText: Leishmania donovani Ubiquitin Activating Enzyme (LdE1)
- Type: functional
- Parameters: scale not given: direction of the effect not stated beside the values
- settings: 30 µM
Measured potencies and affinities stand elsewhere.
Note: unit % is implicit; provide only the numeric part.

[[record]]
compound = "Cc1cnccc1CN1C[C@@H](O)[C@H](Oc2cccc(F)c2)C1"
observed = 1.35

[[record]]
compound = "CCc1n[nH]c(C2CN(C(=O)c3csnn3)CCO2)n1 (centres undefined)"
observed = 10.4

[[record]]
compound = "Cc1occc1C(=O)N1CCC2(CCC(=O)N(CC(N)=O)C2)CC1"
observed = -4.17


We now examine a further compound.
Lab book: Percent Effect of CSC(C)(C)CNC(=O)NCCC1CCN(C)CC1 noted as 2.67

====

- system: Arginase-2, mitochondrial (Homo sapiens) (UniProt P78540)
- Sequence (P78540 whole entry): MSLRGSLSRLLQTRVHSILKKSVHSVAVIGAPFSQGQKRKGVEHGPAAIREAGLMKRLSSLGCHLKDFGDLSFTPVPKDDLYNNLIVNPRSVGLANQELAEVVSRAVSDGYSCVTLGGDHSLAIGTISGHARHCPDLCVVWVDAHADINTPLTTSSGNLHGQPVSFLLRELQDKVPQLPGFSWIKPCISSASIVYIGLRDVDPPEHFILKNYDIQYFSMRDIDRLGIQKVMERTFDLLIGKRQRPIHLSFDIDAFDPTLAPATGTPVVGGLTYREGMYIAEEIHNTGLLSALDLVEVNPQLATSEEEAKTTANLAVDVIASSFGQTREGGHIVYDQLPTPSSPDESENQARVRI
- assayText: in vitro enzyme assay to detect the production of urea directly proportional to the activity of Arginase II; also: in the data most compounds retested in dose-response had high values
- Format: functional
- Parameters: scale not given: direction of the effect not stated beside the values
- settings: 33.3 µM
valueType: Percent Effect (%)
Note: unit % is implicit; provide only the numeric part.

// known answers, use as guide
[[record]]
compound = "O=C(CN1CCCCCCC1=O)NCc1ccccn1"
valuetype = "Percent Effect"
observed = 2.4

[[record]]
compound = "Cc1cc(N2CCC(N(C)C(=O)c3ccccc3)CC2)nc(C)n1"
valuetype = "Percent Effect"
observed = 10.4

[[record]]
compound = "Cc1nc(CN2CCCC(N(C)Cc3nnsc3Cl)C2)no1 (stereo unspecified)"
valuetype = "Percent Effect"
observed = -5.26

[[record]]
compound = "C=Cn1ncc(CN2C[C@@H]3CCCN3C[C@@H]2Cc2ccccc2)c1C"
valuetype = "Percent Effect"
observed = 0.696

[[record]]
compound = "CN(Cc1ccsc1)C(=O)c1cc2c([nH]c1=O)CCCC2=O"
valuetype = "Percent Effect"
observed = -0.185

[[record]]
compound = "COc1ccsc1C(=O)N1CCCC(n2nc(C)nc2C)C1 (stereo unspecified)"
valuetype = "Percent Effect"
observed = 2.66

[[record]]
compound = "COc1cccc(CN2CCC(c3cc(O)nc(C)n3)C2)c1 (stereo unspecified)"
valuetype = "Percent Effect"
observed = -3.02

[[record]]
compound = "O=C(CCNCC(F)(F)F)N1CCC(Nc2cccnn2)CC1"
valuetype = "Percent Effect"
observed = 4.68


Lab book: Percent Effect of Cc1[nH]nc2ncc(C(=O)N3CCN(CC(C)C)CC3)cc12 noted as -3.24

Lab book: Percent Effect of Cc1nn(C)c(N2CCOCC2)c1CNC(C)c1cccnc1 (stereo unspecified) noted as 7.95

Lab book: Percent Effect of Cc1ccc(N2CCCC3(COCCN(c4nccs4)C3)C2)nn1 (stereo unspecified) noted as 1.2

Lab book: Percent Effect of O=C1CC(c2cccnc2)c2c(c(C(=O)O)cn2-c2ccccc2)N1 (stereo unspecified) noted as 6.16

Lab book: Percent Effect of CNS(=O)(=O)c1cccc(CNC(=O)c2c(C)oc(C)c2C)c1 noted as -1.07

Lab book: Percent Effect of CO[C@H]1CO[C@@]2(CCCN(C(=O)C3=CCCCC3)C2)C1 noted as -47.5

Lab book: Percent Effect of Cc1cccc(OCCC(=O)N(C)CCC#N)c1C noted as -5.92

Lab book: Percent Effect of CCOC(=O)CCCNC(=O)CN1CCN(c2ncccn2)CC1 noted as -112

Values from ChEMBL document CHEMBL3988442
